src = ChEMBL document CHEMBL5723035

target: Ubiquitin carboxyl-terminal hydrolase 7 (Homo sapiens, UniProt Q93009); test: Affinity Biochemical interaction: (inhibition of enzyme activity in cleaving fluorogenic ubiquitin-rhodamine substrate) EUB0002755a USP7
Sequence (Q93009 whole entry): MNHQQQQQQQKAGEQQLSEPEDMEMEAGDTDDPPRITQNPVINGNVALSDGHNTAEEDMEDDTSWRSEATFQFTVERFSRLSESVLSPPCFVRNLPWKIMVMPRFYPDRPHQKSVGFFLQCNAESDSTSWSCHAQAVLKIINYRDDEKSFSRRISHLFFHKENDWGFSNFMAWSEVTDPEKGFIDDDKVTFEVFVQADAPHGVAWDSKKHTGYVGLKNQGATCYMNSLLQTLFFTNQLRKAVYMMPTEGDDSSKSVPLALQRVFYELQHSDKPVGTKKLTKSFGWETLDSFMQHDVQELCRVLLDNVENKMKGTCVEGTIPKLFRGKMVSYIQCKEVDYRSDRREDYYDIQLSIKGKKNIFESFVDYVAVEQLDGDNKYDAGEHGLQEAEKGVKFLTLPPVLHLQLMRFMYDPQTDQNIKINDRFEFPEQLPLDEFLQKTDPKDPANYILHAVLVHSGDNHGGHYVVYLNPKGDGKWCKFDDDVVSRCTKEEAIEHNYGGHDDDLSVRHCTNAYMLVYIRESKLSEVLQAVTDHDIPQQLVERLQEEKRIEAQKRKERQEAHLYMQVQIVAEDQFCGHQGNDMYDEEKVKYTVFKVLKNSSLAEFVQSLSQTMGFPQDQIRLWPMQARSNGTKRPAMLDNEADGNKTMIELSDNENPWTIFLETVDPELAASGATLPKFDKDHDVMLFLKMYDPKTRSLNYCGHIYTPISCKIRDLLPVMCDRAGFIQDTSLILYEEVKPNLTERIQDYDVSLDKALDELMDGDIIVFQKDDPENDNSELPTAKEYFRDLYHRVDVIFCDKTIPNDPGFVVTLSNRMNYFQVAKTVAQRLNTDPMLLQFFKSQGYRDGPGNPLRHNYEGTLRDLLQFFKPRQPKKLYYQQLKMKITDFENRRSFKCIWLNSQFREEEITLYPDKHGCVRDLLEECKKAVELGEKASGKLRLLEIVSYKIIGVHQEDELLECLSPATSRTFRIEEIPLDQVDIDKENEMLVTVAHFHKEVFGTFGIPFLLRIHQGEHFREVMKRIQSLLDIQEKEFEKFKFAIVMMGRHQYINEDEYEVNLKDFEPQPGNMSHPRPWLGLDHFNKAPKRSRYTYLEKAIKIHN
MEASURED ATTRIBUTE: IC50 (nM)
Give bare numbers, in nM.

Query for Ubiquitin carboxyl-terminal hydrolase 7 (Homo sapiens, UniProt Q93009): what IC50 does the record show for Cc1cc(Cl)cc(-c2c3sc(CN4C(=O)C5C(C4=O)C5(C)C)cc3nn2C)c1OC1CCNCC1 (stereo unspecified) ?
13.4

----------
target: Histone acetyltransferase KAT6A (Homo sapiens); assay: Affinity Biochemical interaction: (SPR) EUB0001094a MYST3
Sequence (Q92794 whole entry): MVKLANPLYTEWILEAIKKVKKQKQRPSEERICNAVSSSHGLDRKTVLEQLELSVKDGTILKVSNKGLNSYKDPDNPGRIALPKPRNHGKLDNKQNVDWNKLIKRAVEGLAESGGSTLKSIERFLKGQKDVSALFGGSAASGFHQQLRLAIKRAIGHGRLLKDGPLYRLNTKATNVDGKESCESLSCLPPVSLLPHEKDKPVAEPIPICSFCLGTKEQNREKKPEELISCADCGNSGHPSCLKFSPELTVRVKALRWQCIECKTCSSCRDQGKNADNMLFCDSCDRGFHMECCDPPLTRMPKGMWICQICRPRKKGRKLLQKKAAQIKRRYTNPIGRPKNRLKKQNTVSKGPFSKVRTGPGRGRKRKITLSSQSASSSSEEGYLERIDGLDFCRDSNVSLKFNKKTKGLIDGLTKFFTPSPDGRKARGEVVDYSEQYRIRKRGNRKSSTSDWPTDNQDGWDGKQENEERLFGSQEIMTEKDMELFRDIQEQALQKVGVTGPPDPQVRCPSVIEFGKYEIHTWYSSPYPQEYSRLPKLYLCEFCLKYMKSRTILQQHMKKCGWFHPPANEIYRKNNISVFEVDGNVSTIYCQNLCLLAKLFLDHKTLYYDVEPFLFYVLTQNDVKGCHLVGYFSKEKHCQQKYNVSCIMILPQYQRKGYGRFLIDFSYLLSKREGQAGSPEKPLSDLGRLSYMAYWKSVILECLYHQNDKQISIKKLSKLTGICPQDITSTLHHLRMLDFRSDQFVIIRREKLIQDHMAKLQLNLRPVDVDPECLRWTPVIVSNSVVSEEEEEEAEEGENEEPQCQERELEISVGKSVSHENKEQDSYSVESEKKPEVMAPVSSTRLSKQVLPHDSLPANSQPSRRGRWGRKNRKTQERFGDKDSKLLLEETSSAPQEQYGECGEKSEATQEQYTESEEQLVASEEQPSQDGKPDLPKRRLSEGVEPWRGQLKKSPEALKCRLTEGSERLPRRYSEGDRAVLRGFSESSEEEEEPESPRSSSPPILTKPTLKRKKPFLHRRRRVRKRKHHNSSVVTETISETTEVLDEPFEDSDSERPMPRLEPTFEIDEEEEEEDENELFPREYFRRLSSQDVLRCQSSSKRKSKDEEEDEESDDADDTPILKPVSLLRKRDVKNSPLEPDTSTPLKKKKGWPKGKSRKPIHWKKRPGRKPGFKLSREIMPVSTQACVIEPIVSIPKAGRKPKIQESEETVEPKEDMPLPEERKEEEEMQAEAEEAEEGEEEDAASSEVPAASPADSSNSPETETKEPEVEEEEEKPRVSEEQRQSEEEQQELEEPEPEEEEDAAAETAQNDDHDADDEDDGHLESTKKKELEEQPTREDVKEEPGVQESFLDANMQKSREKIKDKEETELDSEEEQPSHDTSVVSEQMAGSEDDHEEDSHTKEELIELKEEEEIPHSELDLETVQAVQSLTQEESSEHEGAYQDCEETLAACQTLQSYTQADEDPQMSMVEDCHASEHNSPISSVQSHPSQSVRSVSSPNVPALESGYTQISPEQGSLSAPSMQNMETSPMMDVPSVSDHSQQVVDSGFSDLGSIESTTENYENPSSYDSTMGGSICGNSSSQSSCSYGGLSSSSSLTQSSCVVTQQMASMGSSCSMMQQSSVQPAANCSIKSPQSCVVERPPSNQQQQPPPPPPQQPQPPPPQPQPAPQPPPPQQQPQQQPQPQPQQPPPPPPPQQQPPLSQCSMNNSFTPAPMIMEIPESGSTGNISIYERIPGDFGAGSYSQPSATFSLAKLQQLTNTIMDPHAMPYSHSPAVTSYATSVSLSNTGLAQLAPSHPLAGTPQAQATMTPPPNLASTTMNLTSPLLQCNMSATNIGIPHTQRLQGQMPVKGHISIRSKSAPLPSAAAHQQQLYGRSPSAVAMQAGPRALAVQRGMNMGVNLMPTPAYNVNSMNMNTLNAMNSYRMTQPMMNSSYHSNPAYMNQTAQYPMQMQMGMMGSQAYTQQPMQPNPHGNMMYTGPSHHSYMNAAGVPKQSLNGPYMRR
MEASURED ATTRIBUTE: Kd

Query for Histone acetyltransferase KAT6A (Homo sapiens): what Kd does the record show for Cc1cc(-c2ccccc2)cc(C(=O)NNS(=O)(=O)c2cccc(O)c2)c1F ?
7 nM
